Ref: patent US20260297542A1

Entries and their measured inhibition at 0.1 ppm follow.
# experimentalSystem: WT (SEQ ID NO.1) AtPPO1 (Arabidopsis thaliana, UniProt P55826)
# Construct: made in house; host or cells: E. coli BL21 (DE3) hemG, crude extract
# Sequence (P55826 35-537): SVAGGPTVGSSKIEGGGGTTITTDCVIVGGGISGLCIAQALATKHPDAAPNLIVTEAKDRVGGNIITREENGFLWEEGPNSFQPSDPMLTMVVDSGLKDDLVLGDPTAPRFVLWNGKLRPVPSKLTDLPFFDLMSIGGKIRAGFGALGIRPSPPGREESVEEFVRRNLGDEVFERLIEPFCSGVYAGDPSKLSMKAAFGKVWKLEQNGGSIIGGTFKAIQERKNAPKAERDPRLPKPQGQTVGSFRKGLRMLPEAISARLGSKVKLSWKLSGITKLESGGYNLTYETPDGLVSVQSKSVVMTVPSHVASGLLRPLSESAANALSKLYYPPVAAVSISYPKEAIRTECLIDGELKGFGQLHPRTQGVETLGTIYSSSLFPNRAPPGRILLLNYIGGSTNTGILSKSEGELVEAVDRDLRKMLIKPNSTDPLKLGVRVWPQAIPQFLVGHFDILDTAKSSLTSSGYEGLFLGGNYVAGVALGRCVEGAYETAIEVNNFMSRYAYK
# assayProcedure: fluorescent Protoporphyrinogen Oxidase assay, crude extract
# Format: biochemical
# recordedConditions: read-out: percentage inhibition
# Protocol: A pET24 plasmid containing a DNA sequence encoding each identified variant mutant of AtPPO1 derived from Arabidopsis thaliana, codon-optimised for expression in E. coli, and under control of a T7 promoter, was synthesised by Twist Bioscience. […] Protein concentration was measured and calculated using the absorbance at 280 nm. Extracts were diluted 1 in 4 and 10 uL was analysed by SDS PAGE. […]

[
  {
    "compound": "CCOC(=O)COc1ncccc1Oc1cc(-n2c(=O)cc(C(F)(F)F)n(C)c2=O)c(F)cc1Cl [Herbicide A, epyrifenacil]",
    "inhibition at 0.1 ppm / %": 94
  },
  {
    "compound": "C#CCN1C(=O)C(F)(F)Oc2cc(F)c(-n3c(=O)n(C)c(=S)n(C)c3=O)cc21 [Herbicide B, trifludimoxazin]",
    "inhibition at 0.1 ppm / %": 97
  },
  {
    "compound": "CCOC(=O)C1(C)CC(c2cc(-n3c(=O)cc(C(F)(F)F)n(C)c3=O)c(F)cc2Cl)=NO1 (centres unmarked) [Herbicide C]",
    "inhibition at 0.1 ppm / %": 91
  },
  {
    "compound": "CCOC(=O)[C@]1(C)CC(c2cc(-n3c(=O)n(C)c(=S)n(C)c3=O)c(F)cc2Cl)=NO1 [Herbicide D]",
    "inhibition at 0.1 ppm / %": 91
  },
  {
    "compound": "CC(C)N(C)S(=O)(=O)NC(=O)c1cc(-n2c(=O)cc(C(F)(F)F)n(C)c2=O)c(F)cc1Cl [Herbicide E, saflufenacil]",
    "inhibition at 0.1 ppm / %": 91
  }
]
